Catalogue of GI50 values
system: human SKM-1 acute myeloid leukemia cells; experiment: SKM-1 antiproliferation cell-based assay (ATPlite); details: Homo sapiens, SKM-1, 96 h, SKM-1 antiproliferation assay, 4 days, Table C2

In the examples that follow, each entry is paired with its recorded GI50.
compound: Cn1ccn(-c2ccc(-c3cc(F)cc(-c4ccnc(N5C[C@@H](O)[C@@H](O)C5)c4)c3O)cc2Cl)c1=O
GI50: 0.0003 to 0.03 µM
//
compound: Cn1ccn(-c2ccc(-c3cc(Cl)cc(-c4cncc(N5CC[C@H](N)C5)c4)c3O)cc2Cl)c1=O
GI50: 0.03 to 0.3 µM
//
compound: O=C1CCCN1c1ccc(-c2cc(Cl)cc(-c3ccnc(N4CCNCC4)c3)c2O)cc1F
GI50: 0.3 to 3 µM
//
compound: O=C1NCCN1c1ccc(-c2cc(F)cc(-c3ccnc(N4CCNCC4)c3)c2O)cc1Cl
GI50: 0.3 to 3 µM

Task item: Name the recorded GI50 of the compound listed here: Cn1cc(-c2cc(F)cc(-c3ccc(-n4ccn(C)c4=O)c(Cl)c3)c2O)cc(N2CC[C@@](C)(N)C2)c1=O
Reply: 0.0003 to 0.03 µM

Task item: Name the recorded GI50 of the compound listed here: Cc1cc(-c2cc(F)cc(-c3ccnc(N4CCNCC4)c3)c2O)cc(Cl)c1N1CCN(C)C1=O
Reply: 0.3 to 3 µM

Task item: Name the recorded GI50 of the compound listed here: Cn1ccn(-c2ccc(-c3cc(F)cc(-c4ccnc(N5CCC6(CCCO6)C5)c4)c3O)cc2Cl)c1=O (stereo not drawn)
Reply: 0.03 to 0.3 µM

###

system: human SKM-1 acute myeloid leukemia cells; test: SKM-1 antiproliferation cell-based assay (ATPlite); details: Homo sapiens, SKM-1, 96 h, SKM-1 antiproliferation assay, 4 days, Table C2
quantity kind: GI50

In the examples that follow, each entry is paired with its recorded GI50.
molecule: CN1CCN(c2ccc(-c3cccc(-c4cncc(N5CCNCC5)c4)c3O)cc2F)C1=O
GI50: 30 to 300 nM

molecule: CN1CCC2(CC(=O)N(c3cc(-c4cc(F)cc(-c5ccc(-n6ccn(C)c6=O)c(Cl)c5)c4O)ccn3)C2)C1 (stereo not drawn)
GI50: 30 to 300 nM

Let us examine a further case.
Task item: Name the recorded GI50 of the molecule listed here: CN1CCN(c2ccc(-c3cc(F)cc(-c4cnc(C(=O)O)c(N5CCNCC5)c4)c3O)cc2Cl)C1=O
Reply: ≥ 3000 nM

###

target: human BRD4 bromodomain II (Homo sapiens); construct: human BRD4 bromodomain II [based on Genbank NM_058243, residues 349-460]; host or cells: E. coli; assay: Bromodomain binding assay (AlphaScreen), BRD4 BDII; details: BRD4 BDII AlphaScreen assay; read-out: BRD4 BD2 IC50
quantity kind: IC50

molecule: Cn1ccn(-c2ccc(-c3cc(F)cc(-c4ccnc(N5CCS(=N)(=O)CC5)c4)c3O)cc2Cl)c1=O [Example 915]
target of assay: human BRD4 bromodomain II (Homo sapiens)
IC50: 0.01 to 1 nM

Task item: Name the recorded IC50 of the molecule listed here: CNc1ncc(-c2cc(F)cc(-c3ccc(-n4ccn(C)c4=O)c(Cl)c3)c2O)cc1N1CCC2(CCCN2C(C)C)C1 (centres unmarked) [Example 970]
Reply: 1 to 10 nM

Task item: Name the recorded IC50 of the molecule listed here: Cc1cc(-c2ccc(-n3ccn(C)c3=O)c(F)c2)c(O)c(-c2cccc(N3CCN(C(C)(C)C)CC3)c2)n1 [Example 1003]
Reply: 1 to 10 nM

Task item: Name the recorded IC50 of the molecule listed here: Cc1ncc(-c2cc(F)cc(-c3ccc(-n4ccn(C)c4=O)c(Cl)c3)c2O)cc1N1CC[C@@]2(CCCN2C(C)C)C1 [Example 955]
Reply: 1 to 10 nM

Task item: Name the recorded IC50 of the molecule listed here: Cc1cc(-c2ccc(-n3ccn(C)c3=O)c(Cl)c2)c(O)c(-c2cc(N3CCN(C(C)(C)C)CC3)c(=O)n(C)c2)n1 [Example 1011]
Reply: 10 to 100 nM

Task item: Name the recorded IC50 of the molecule listed here: CCc1ncc(-c2cc(F)cc(-c3ccc(-n4ccn(C)c4=O)c(Cl)c3)c2O)cc1N1CC[C@@](C)(O)C1 [Example 852]
Reply: 0.01 to 1 nM
